Cited source for all entries: patent US20220332804A1

Target: T1, cynomolgus monkey C2 (cynomolgus monkey, UniProt G8F3W0 21-752)
T1 construct: also called cyno C2
T1 sequence: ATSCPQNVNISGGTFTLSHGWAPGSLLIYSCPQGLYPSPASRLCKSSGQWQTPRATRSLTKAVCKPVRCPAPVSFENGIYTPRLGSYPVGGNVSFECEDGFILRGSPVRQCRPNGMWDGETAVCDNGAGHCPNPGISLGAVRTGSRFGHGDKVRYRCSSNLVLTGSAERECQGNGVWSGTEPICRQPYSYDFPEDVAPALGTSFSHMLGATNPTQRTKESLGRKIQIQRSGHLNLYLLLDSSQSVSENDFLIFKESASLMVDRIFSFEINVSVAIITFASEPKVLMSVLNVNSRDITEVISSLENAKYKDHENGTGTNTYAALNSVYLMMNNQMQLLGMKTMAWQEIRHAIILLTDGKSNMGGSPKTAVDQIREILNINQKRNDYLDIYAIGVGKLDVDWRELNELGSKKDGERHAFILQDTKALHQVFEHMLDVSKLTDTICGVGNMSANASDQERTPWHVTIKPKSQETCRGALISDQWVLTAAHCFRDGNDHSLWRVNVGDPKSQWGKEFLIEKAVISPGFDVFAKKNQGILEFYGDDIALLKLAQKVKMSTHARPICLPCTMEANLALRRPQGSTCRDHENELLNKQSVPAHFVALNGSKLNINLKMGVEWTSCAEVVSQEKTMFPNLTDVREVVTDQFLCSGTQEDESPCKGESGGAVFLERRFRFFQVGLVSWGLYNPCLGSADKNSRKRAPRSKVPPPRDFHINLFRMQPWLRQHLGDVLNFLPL
Assay: SPR, mAb captured, cyno C2 analyte, pH 7.3
metric: Kd (nM)
Report only the number, with the unit nM understood.

Worked set:
{"binder": "RF16-214 (antibody, V domains shown) VH: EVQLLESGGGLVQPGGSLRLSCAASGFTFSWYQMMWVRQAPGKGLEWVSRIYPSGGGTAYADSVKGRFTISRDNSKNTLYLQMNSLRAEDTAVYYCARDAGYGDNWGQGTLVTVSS VL: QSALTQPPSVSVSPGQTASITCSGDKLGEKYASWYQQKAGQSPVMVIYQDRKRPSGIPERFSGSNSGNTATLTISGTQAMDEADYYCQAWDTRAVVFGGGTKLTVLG", "metric": "Kd", "measurement": 46.8}
{"binder": "RF16-191 (antibody, V domains shown, Human antibody from a phage display library) VH: EVQLLESGGGLVQPGGSLRLSCAASGFTFSKYWMGWVRQATGKGLEWVSSIYSSGGWTYYADSVKGRFTISRDNSKNTLYLQMNSLRAEDTAVYYCARRPRSFSGSYYRAFDIWGQGTMVTVSS VL: DIQMTQSPSSLSASVGDRVTITCRASQSITDYLNWYQQRPGKAPKLLIYAASSLQSGVPSRFSGSGSGTDFTLTISGLQPEDFATYYCQQSYSSSITFGQGTRLDLKR", "metric": "Kd", "measurement": 27.4}

For RF16-191G (antibody, V domains shown) VH: EVQLLESGGGLVQPGGSLRLSCAASGFTFSKYWMGWVRQAPGKGLEWVSSIYSSGGWTYYADSVKGRFTISRDNSKNTLYLQMNSLRAEDTAVYYCARRPRSFSGSYYRAFDIWGQGTMVTVSS VL: DIQMTQSPSSLSASVGDRVTITCRASQSITDYLNWYQQKPGKAPKLLIYAASSLQSGVPSRFSGSGSGTDFTLTISSLQPEDFATYYCQQSYSSSITFGQGTRLDLKR the binder record lists Kd as 35.7
